Consider the following compounds and their measured Growth Rate readings.
test system: Fibroblast; test: Incucyte cell viability with human fibroblast; format: toxicity, cell-based; settings: 12 h, 10 µM, compound concentration 10 uM, replicate number 2; further: unitless GR value; below 1 slowed growth and below 0 cell loss
reportedProperty: Growth Rate

> print(dat)
                                   compound  testresult
1  Cc1nnc2n1-c1sc3c(c1C(c1ccccc1Cl)=NC2)CC(C(=O)N1CCOCC1)C3 (centres undefined) [BEPAFANT]        0.71
2  COc1ccccc1Nc1nc(-c2nn(Cc3c(F)cc(OCCCO)cc3F)c3ccccc23)ncc1OC        0.41
3  COc1cccc(-c2c(C)c(Cc3c(F)cccc3C(F)(F)F)c3n(c2=O)[C@@H]([C@@H](N)c2ccccc2)CS3)c1F        0.73
4  CCOC(=O)c1cc2cc(-c3cc(C(=O)NCc4ccc(C(=O)O)cc4)nn3C)ccc2[nH]1 [BI 4394]        0.54
5  CC(=O)N1CCC(c2ccc(C(=O)NC3=NCCN3)cc2C(F)(F)F)CC1 [BI 0054]        0.87
6  COc1cc(Oc2nc(-c3ccc(NC(=O)C4CCOC4)cc3)nn3c(C)nc(C)c23)cc(OC)c1OC (centres undefined)        0.75
7  C=C[C@@]12CCc3cc(O)ccc3[C@H]1CC[C@@]1(C)[C@H]2CC[C@@H]1O        0.29
8      c1ccc2nc(N3CCNCC3)ccc2c1 [QUIPAZINE]        0.92
9  C/C=C1\C(=O)CC2C3CCC4=CC(=O)CC[C@]4(C)C3CC[C@]12C (some centres undefined)        0.88

---

tested on: U2OS; assay: Incucyte cell viability with U2OS; format: toxicity, cell-based; settings: human, 24 h, 10 µM, compound concentration 10 uM, replicate number 2; further: unitless GR value; below 1 slowed growth and below 0 cell loss

molecule	Growth Rate
CC(C)C[C@H](NC(=O)c1cc2ccccc2s1)C(=O)N1CCN(C(=O)[C@H](CO)NS(=O)(=O)c2ccc(Cl)cc2Cl)CC1	0.66
COc1ccc2c(O[C@@H]3C[C@H]4C(=O)N[C@]5(C(=O)O)CC5/C=C\CCCCC[C@H](NC(=O)OC5CCCC5)C(=O)N4C3)cc(-c3csc(NC(=O)C(C)C)n3)nc2c1C (stereo partly drawn) [BI 1230]	0.95
CCOP(=O)(OCC)C(=Cc1cc(C(C)(C)C)c(O)c(C(C)(C)C)c1)P(=O)(OCC)OCC	0.77
CC(=O)Nc1ncc(CN2CCC[C@H](Cc3cc(C)nc(C)c3)C2)s1 [JNJ-65355394]	0.78
CC(=O)c1ccc2c(c1)/C(=C(/Nc1cccc(C#N)c1)c1ccc3c(c1)OCCO3)C(=O)N2	0.43
O=C(O)CCC/C=C\C[C@@H]1[C@@H](/C=C/[C@@H](O)COc2cccc(C(F)(F)F)c2)[C@H](O)C[C@@H]1O [FLUPROSTENOL]	0.91
Cn1c(C2(NC(=O)c3ccc(NCC4CCCCC4)nc3)CCC2)nc2ccc(/C=C/C(=O)O)cc21 [BI 7656]	0.93
CC[C@@]1(c2ccccc2)NC(=O)N(Cc2ccccc2)C1=O	0.99

---

test system: U2OS; assay: Incucyte cell viability with U2OS; assay type: toxicity, cell-based; details: human, 6 h, 10 µM, compound concentration 10 uM, replicate number 1; further: unitless GR value; below 1 slowed growth and below 0 cell loss
Numbered stars: 1 amine (or outer) side, 2 acyl side, 3 side chain; on linkers, the order of the positions; unused ones are H or OH. Bridge positions count the residues as written; N and C are the ends. Square brackets hold non-standard residues; d marks the D form. Peptide text beside a SMILES is read from it. I, II: the chains in the order shown. Hexamethylenediamine = C(CCCN[*:2])CCN[*:1]; Dip = N[C@H](C(=O)O)C(c1ccccc1)c1ccccc1; Chg = N[C@H](C(=O)O)C1CCCCC1; NMeA = CN[C@@H](C)C(=O)O
Reported Growth Rate values are given for each entry in this list.

compound	Growth Rate
O=C(Nc1cc(C(F)(F)F)cc(C(F)(F)F)c1)c1cc(Cl)ccc1O	0.76
C[C@H](CCC(=O)O)[C@H]1CC[C@H]2[C@@H]3CC[C@@H]4C[C@H](O)CC[C@]4(C)[C@H]3C[C@H](O)[C@]12C	0.86
CN[C@@H](C)C(=O)N[C@H](C(=O)N1CCC[C@H]1C(=O)N[C@H](C(=O)NCCCCCCNC(=O)[C@@H](NC(=O)[C@@H]1CCCN1C(=O)[C@@H](NC(=O)[C@H](C)NC)C1CCCCC1)C(c1ccccc1)c1ccccc1)C(c1ccccc1)c1ccccc1)C1CCCCC1 (I: H-[NMeA][Chg]P[Dip] / II: H-[NMeA][Chg]P[Dip]; linker I:C-II:C via Hexamethylenediamine)	-0.4
Cc1cccc(-c2nn3c(c2-c2ccnc4ccc(C(N)=O)cc24)CCC3)n1	0.57
CC[C@H](Nc1c(C#N)c(-c2ccc(-c3cccc(C)c3F)cc2)nc2cnccc12)C(=O)O	0.1
Nc1ncc2c(n1)-c1c([nH]c3ccc(C4=CCOCC4)cc13)CCC2	0.74
